Where do the numbers come from? From the supplement of paper PMC10307832.

Below, each entry is listed alongside its reported relative viability.
System: NCI-H647
Assay: relative viability (nuclei count vs DMSO), 5 days (fraction); higher = more cells survive
Details: first compound 0.006325 µM
Form field (numeric): enter value without unit.

Worked set:
CCNC(=O)c1noc(-c2cc(C(C)C)c(O)cc2O)c1-c1ccc(CN2CCOCC2)cc1 [Luminespib] + NC(=O)Nc1cc(-c2cccc(F)c2)sc1C(=O)N[C@H]1CCCNC1 [AZD7762] (partner 0.2 µM) ... 0.538
CCNC(=O)c1noc(-c2cc(C(C)C)c(O)cc2O)c1-c1ccc(CN2CCOCC2)cc1 [Luminespib] + Nc1ncn([C@H]2C[C@H](O)[C@@H](CO)O2)c(=O)n1 [Decitabine] (partner 2 µM) ... 0.484
CCNC(=O)c1noc(-c2cc(C(C)C)c(O)cc2O)c1-c1ccc(CN2CCOCC2)cc1 [Luminespib] + O=C(c1cc(Cc2n[nH]c(=O)c3ccccc23)ccc1F)N1CCN(C(=O)C2CC2)CC1 [Olaparib] (partner 8 µM) ... 0.577
CCNC(=O)c1noc(-c2cc(C(C)C)c(O)cc2O)c1-c1ccc(CN2CCOCC2)cc1 [Luminespib] + Cc1cc(Nc2cc(N3CCN(C)CC3)nc(Sc3ccc(NC(=O)C4CC4)cc3)n2)n[nH]1 [Tozasertib] (partner 0.1 µM) ... 0.274
CCNC(=O)c1noc(-c2cc(C(C)C)c(O)cc2O)c1-c1ccc(CN2CCOCC2)cc1 [Luminespib] + CS(=O)(=O)CCNCc1ccc(-c2ccc3ncnc(Nc4ccc(OCc5cccc(F)c5)c(Cl)c4)c3c2)o1 [Lapatinib] (partner 2 µM) ... 1.16

Query: Which value of relative viability has been reported for CCNC(=O)c1noc(-c2cc(C(C)C)c(O)cc2O)c1-c1ccc(CN2CCOCC2)cc1 [Luminespib] + C[C@]1(O)C[C@@H](c2nc(-c3ccc4ccc(-c5ccccc5)nc4c3)c3c(N)nccn32)C1 [Linsitinib] (partner 1 µM) in the records?
Response: 1.26

Query: Which value of relative viability has been reported for CCNC(=O)c1noc(-c2cc(C(C)C)c(O)cc2O)c1-c1ccc(CN2CCOCC2)cc1 [Luminespib] + C[C@@H](Oc1cc(-c2cnn(C3CCNCC3)c2)cnc1N)c1c(Cl)ccc(F)c1Cl [Crizotinib] (partner 1 µM) in the records?
Response: 1.07

====

Tested on: NCI-H441
Experiment: relative viability (nuclei count vs DMSO), 5 days (fraction); higher = more cells survive
Details: first compound 0.01 µM
MEASURE NAME: relative viability

Worked set:
Cc1cn(-c2cc(NC(=O)c3ccc(C)c(Nc4nccc(-c5cccnc5)n4)c3)cc(C(F)(F)F)c2)cn1 [Nilotinib] + COc1cc2c(Oc3ccc(NC(=O)C4(C(=O)Nc5ccc(F)cc5)CC4)cc3F)ccnc2cc1OCCCN1CCOCC1 [Foretinib] (partner 0.25 µM) ... 1.32
Cc1cn(-c2cc(NC(=O)c3ccc(C)c(Nc4nccc(-c5cccnc5)n4)c3)cc(C(F)(F)F)c2)cn1 [Nilotinib] + CS(=O)(=O)N1CCN(Cc2cc3nc(-c4cccc5[nH]ncc45)nc(N4CCOCC4)c3s2)CC1 [Pictilisib] (partner 1 µM) ... 0.532
Cc1cn(-c2cc(NC(=O)c3ccc(C)c(Nc4nccc(-c5cccnc5)n4)c3)cc(C(F)(F)F)c2)cn1 [Nilotinib] + CC1(C)CCC(c2ccc(Cl)cc2)=C(CN2CCN(c3ccc(C(=O)NS(=O)(=O)c4ccc(N[C@H](CCN5CCOCC5)CSc5ccccc5)c(S(=O)(=O)C(F)(F)F)c4)cc3)CC2)C1 [Navitoclax] (partner 0.5 µM) ... 0.568
Cc1cn(-c2cc(NC(=O)c3ccc(C)c(Nc4nccc(-c5cccnc5)n4)c3)cc(C(F)(F)F)c2)cn1 [Nilotinib] + CC(C)C[C@H](NC(=O)[C@H](Cc1ccccc1)NC(=O)c1cnccn1)B(O)O [Bortezomib] (partner 0.002 µM) ... 0.492
Cc1cn(-c2cc(NC(=O)c3ccc(C)c(Nc4nccc(-c5cccnc5)n4)c3)cc(C(F)(F)F)c2)cn1 [Nilotinib] + NC(=O)Nc1cc(-c2cccc(F)c2)sc1C(=O)N[C@H]1CCCNC1 [AZD7762] (partner 0.2 µM) ... 1.19
Cc1cn(-c2cc(NC(=O)c3ccc(C)c(Nc4nccc(-c5cccnc5)n4)c3)cc(C(F)(F)F)c2)cn1 [Nilotinib] + CC(=O)Nc1cccc(-n2c(=O)n(C3CC3)c(=O)c3c(Nc4ccc(I)cc4F)n(C)c(=O)c(C)c32)c1 [Trametinib] (partner 0.02 µM) ... 0.468

Query: Which value of relative viability has been reported for Cc1cn(-c2cc(NC(=O)c3ccc(C)c(Nc4nccc(-c5cccnc5)n4)c3)cc(C(F)(F)F)c2)cn1 [Nilotinib] + C[C@]1(O)C[C@@H](c2nc(-c3ccc4ccc(-c5ccccc5)nc4c3)c3c(N)nccn32)C1 [Linsitinib] (partner 1 µM) in the records?
Response: 0.482

Query: Which value of relative viability has been reported for Cc1cn(-c2cc(NC(=O)c3ccc(C)c(Nc4nccc(-c5cccnc5)n4)c3)cc(C(F)(F)F)c2)cn1 [Nilotinib] + Cc1nc(Nc2ncc(C(=O)Nc3c(C)cccc3Cl)s2)cc(N2CCN(CCO)CC2)n1 [Dasatinib] (partner 0.075 µM) in the records?
Response: 0.632

Query: Which value of relative viability has been reported for Cc1cn(-c2cc(NC(=O)c3ccc(C)c(Nc4nccc(-c5cccnc5)n4)c3)cc(C(F)(F)F)c2)cn1 [Nilotinib] + Cc1cc(Nc2cc(N3CCN(C)CC3)nc(Sc3ccc(NC(=O)C4CC4)cc3)n2)n[nH]1 [Tozasertib] (partner 0.1 µM) in the records?
Response: 0.44

Query: Which value of relative viability has been reported for Cc1cn(-c2cc(NC(=O)c3ccc(C)c(Nc4nccc(-c5cccnc5)n4)c3)cc(C(F)(F)F)c2)cn1 [Nilotinib] + Cc1nc(NC(=O)N2CCC[C@H]2C(N)=O)sc1-c1ccnc(C(C)(C)C(F)(F)F)c1 [Alpelisib] (partner 2 µM) in the records?
Response: 0.765

Query: Which value of relative viability has been reported for Cc1cn(-c2cc(NC(=O)c3ccc(C)c(Nc4nccc(-c5cccnc5)n4)c3)cc(C(F)(F)F)c2)cn1 [Nilotinib] + Nc1nc2[nH]cc(CCc3ccc(C(=O)N[C@@H](CCC(=O)O)C(=O)O)cc3)c2c(=O)[nH]1 [Pemetrexed] (partner 0.2 µM) in the records?
Response: 0.225

Query: Which value of relative viability has been reported for Cc1cn(-c2cc(NC(=O)c3ccc(C)c(Nc4nccc(-c5cccnc5)n4)c3)cc(C(F)(F)F)c2)cn1 [Nilotinib] + Nc1ncn([C@H]2C[C@H](O)[C@@H](CO)O2)c(=O)n1 [Decitabine] (partner 2 µM) in the records?
Response: 0.284

====

Below, each entry is listed alongside its reported relative viability.
Test system: H3255
Assay: relative viability (nuclei count vs DMSO), 5 days (fraction); higher = more cells survive
Settings: first compound 0.03162 µM
Form field (numeric): enter value without unit.

Worked set:
Cc1cn(-c2cc(NC(=O)c3ccc(C)c(Nc4nccc(-c5cccnc5)n4)c3)cc(C(F)(F)F)c2)cn1 [Nilotinib] + CC(=O)Nc1cccc(-n2c(=O)n(C3CC3)c(=O)c3c(Nc4ccc(I)cc4F)n(C)c(=O)c(C)c32)c1 [Trametinib] (partner 0.02 µM) ... 0.53
Cc1cn(-c2cc(NC(=O)c3ccc(C)c(Nc4nccc(-c5cccnc5)n4)c3)cc(C(F)(F)F)c2)cn1 [Nilotinib] + CS(=O)(=O)N1CCN(Cc2cc3nc(-c4cccc5[nH]ncc45)nc(N4CCOCC4)c3s2)CC1 [Pictilisib] (partner 1 µM) ... 0.416
Cc1cn(-c2cc(NC(=O)c3ccc(C)c(Nc4nccc(-c5cccnc5)n4)c3)cc(C(F)(F)F)c2)cn1 [Nilotinib] + CC(=O)c1c(C)c2cnc(Nc3ccc(N4CCNCC4)cn3)nc2n(C2CCCC2)c1=O [Palbociclib] (partner 0.5 µM) ... 0.308
Cc1cn(-c2cc(NC(=O)c3ccc(C)c(Nc4nccc(-c5cccnc5)n4)c3)cc(C(F)(F)F)c2)cn1 [Nilotinib] + COc1cccc2cc(-c3nc([C@H]4CC[C@H](C(=O)O)CC4)n4ncnc(N)c34)[nH]c12 [OSI-027] (partner 0.5 µM) ... 0.501

Kindly review the next compound as well.
Query: # get_value(readout= relative viability, system= H3255) for Cc1cn(-c2cc(NC(=O)c3ccc(C)c(Nc4nccc(-c5cccnc5)n4)c3)cc(C(F)(F)F)c2)cn1 [Nilotinib] + C[C@@H](Oc1cc(-c2cnn(C3CCNCC3)c2)cnc1N)c1c(Cl)ccc(F)c1Cl [Crizotinib] (partner 1 µM)
Response: 0.814

====

Test system: LXF-289
Test: relative viability (nuclei count vs DMSO), 5 days (fraction); higher = more cells survive
Conditions: first compound 0.001 µM
One threshold, 0.7, splits the recorded relative viability values: lower ones are 1.0, equal or higher ones are 0.0.

As a guide, the following entries are already answered.
Cc1cn(-c2cc(NC(=O)c3ccc(C)c(Nc4nccc(-c5cccnc5)n4)c3)cc(C(F)(F)F)c2)cn1 [Nilotinib] + CC1(C)CCC(c2ccc(Cl)cc2)=C(CN2CCN(c3ccc(C(=O)NS(=O)(=O)c4ccc(N[C@H](CCN5CCOCC5)CSc5ccccc5)c(S(=O)(=O)C(F)(F)F)c4)cc3)CC2)C1 [Navitoclax] (partner 0.5 µM) ... 0.0
Cc1cn(-c2cc(NC(=O)c3ccc(C)c(Nc4nccc(-c5cccnc5)n4)c3)cc(C(F)(F)F)c2)cn1 [Nilotinib] + COc1cccc2cc(-c3nc([C@H]4CC[C@H](C(=O)O)CC4)n4ncnc(N)c34)[nH]c12 [OSI-027] (partner 0.5 µM) ... 0.0
Cc1cn(-c2cc(NC(=O)c3ccc(C)c(Nc4nccc(-c5cccnc5)n4)c3)cc(C(F)(F)F)c2)cn1 [Nilotinib] + CC(=O)c1c(C)c2cnc(Nc3ccc(N4CCNCC4)cn3)nc2n(C2CCCC2)c1=O [Palbociclib] (partner 0.5 µM) ... 1.0
Cc1cn(-c2cc(NC(=O)c3ccc(C)c(Nc4nccc(-c5cccnc5)n4)c3)cc(C(F)(F)F)c2)cn1 [Nilotinib] + N=C(N)NC(=N)NCCc1ccccc1 [Phenformin] (partner 250 µM) ... 1.0

Query: Does this molecule meet the criterion relative viability < 0.7? Cc1cn(-c2cc(NC(=O)c3ccc(C)c(Nc4nccc(-c5cccnc5)n4)c3)cc(C(F)(F)F)c2)cn1 [Nilotinib] + Nc1ncn([C@H]2C[C@H](O)[C@@H](CO)O2)c(=O)n1 [Decitabine] (partner 2 µM)
Response: 1.0
